System: KRAS G12S (Homo sapiens, UniProt P01116+P62937, G12S)
Sequence (P01116 1-169 isoform P01116-2 G12S limits assumed): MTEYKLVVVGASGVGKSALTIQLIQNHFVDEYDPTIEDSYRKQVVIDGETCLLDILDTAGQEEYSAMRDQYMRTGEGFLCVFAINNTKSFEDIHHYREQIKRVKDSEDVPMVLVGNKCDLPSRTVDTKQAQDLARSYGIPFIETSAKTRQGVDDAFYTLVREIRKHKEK
Sequence (P62937 whole entry): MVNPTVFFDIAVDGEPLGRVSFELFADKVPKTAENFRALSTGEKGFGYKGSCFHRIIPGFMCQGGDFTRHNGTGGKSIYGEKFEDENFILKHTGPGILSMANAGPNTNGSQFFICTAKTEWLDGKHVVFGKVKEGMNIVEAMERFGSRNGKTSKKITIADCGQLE
Assay Remarks: Ras-Raf disruption/FRET/MOA assay, KRAS G12S
Assay type: biochemical
Details: disruption of BRAF RBD binding, with Cyclophilin A; read-out: KRAS G12S FRET IC50
pIC50: −log10 of the molar value.
Give pIC50 for every item shown.

# get_value(readout='pIC50', item= CCn1c(-c2cccnc2[C@H](C)OC)c2c3cc(ccc31)-c1cc(O)cc(c1)C[C@H](NC(=O)[C@H](C(C)C)N1CC[C@]3(CCN(C[C@@H]4CN4)C3)C1=O)C(=O)N1CCC[C@H](N1)C(=O)OCC(C)(C)C2 )
7.00 to 8.00

# get_value(readout='pIC50', item= CCn1c(-c2cccnc2[C@H](C)OC)c2c3cc(ccc31)-c1cc(O)cc(c1)C[C@H](NC(=O)[C@H](C(C)C)N1CC[C@@]3(CCCN(C(=O)[C@H]4CN4)C3)C1=O)C(=O)N1CCC[C@H](N1)C(=O)OCC(C)(C)C2 )
6.00 to 7.00

# get_value(readout='pIC50', item= CCn1c(-c2cnccc2COC)c2c3cc(ccc31)-c1cc(O)cc(c1)C[C@H](NC(=O)[C@H](C(C)C)N(C)C(=O)CN(C)C(=O)[C@@H]1CN1S(C)(=O)=O)C(=O)N1CCC[C@H](N1)C(=O)OCC(C)(C)C2 (stereo partly drawn) )
7.00 to 8.00

# get_value(readout='pIC50', item= CCn1c(-c2cnccc2COC)c2c3cc(ccc31)-c1cccc(c1)C[C@H](NC(=O)[C@H](C(C)C)N(C)C(=O)[C@H]1CC[C@H](N=C=Nc3ccc(OC)cc3)C1)C(=O)N1CCC[C@H](N1)C(=O)OCC(C)(C)C2 )
< 5.00

# get_value(readout='pIC50', item= CCn1c(-c2cccnc2[C@H](C)OC)c2c3cc(ccc31)-c1cc(O)cc(c1)C[C@H](NC(=O)[C@H](C(C)C)N1CC[C@@]3(CCN(C[C@H]4CN4)C3)C1=O)C(=O)N1CCC[C@H](N1)C(=O)OCC(C)(C)C2 [Compound 193] )
6.00 to 7.00

# get_value(readout='pIC50', item= CCn1c(-c2cnccc2COC)c2c3cc(ccc31)-c1cc(O)cc(c1)C[C@H](NC(=O)[C@H](C(C)C)N(C)C(=O)CN(C)C(=O)[C@H]1CN1S(C)(=O)=O)C(=O)N1CCC[C@H](N1)C(=O)OCC(C)(C)C2 (stereo partly drawn) )
7.00 to 8.00

# get_value(readout='pIC50', item= CCn1c(-c2cnccc2COC)c2c3cc(ccc31)-c1cc(O)cc(c1)C[C@H](NC(=O)[C@H](C(C)C)N(C)C(=O)CN(C)C(=O)C1CN1S(C)(=O)=O)C(=O)N1CCC[C@H](N1)C(=O)OCC(C)(C)C2 (stereo partly drawn) )
7.00 to 8.00

# get_value(readout='pIC50', item= CCn1c(-c2cccnc2[C@H](C)OC)c2c3cc(ccc31)-c1cc(O)cc(c1)C[C@H](NC(=O)[C@H](C(C)C)N1CCC3(CCN(C(=O)[C@@H]4CN4)CC3)C1=O)C(=O)N1CCC[C@H](N1)C(=O)OCC(C)(C)C2 )
6.00 to 7.00

# get_value(readout='pIC50', item= CCn1c(-c2cnccc2COC)c2c3cc(ccc31)-c1cccc(c1)C[C@H](NC(=O)[C@H](C(C)C)N(C)C(=O)[C@@H]1CC[C@@H](N=C=Nc3ccc(OC)cc3)C1)C(=O)N1CCC[C@H](N1)C(=O)OCC(C)(C)C2 )
< 5.00
